- TARGET_SYSTEM: EGFR bearing the L858R/T790M double mutation (Homo sapiens, UniProt P00533, L858R/T790M)
- Sequence (P00533 25-1210 T790M/L858R): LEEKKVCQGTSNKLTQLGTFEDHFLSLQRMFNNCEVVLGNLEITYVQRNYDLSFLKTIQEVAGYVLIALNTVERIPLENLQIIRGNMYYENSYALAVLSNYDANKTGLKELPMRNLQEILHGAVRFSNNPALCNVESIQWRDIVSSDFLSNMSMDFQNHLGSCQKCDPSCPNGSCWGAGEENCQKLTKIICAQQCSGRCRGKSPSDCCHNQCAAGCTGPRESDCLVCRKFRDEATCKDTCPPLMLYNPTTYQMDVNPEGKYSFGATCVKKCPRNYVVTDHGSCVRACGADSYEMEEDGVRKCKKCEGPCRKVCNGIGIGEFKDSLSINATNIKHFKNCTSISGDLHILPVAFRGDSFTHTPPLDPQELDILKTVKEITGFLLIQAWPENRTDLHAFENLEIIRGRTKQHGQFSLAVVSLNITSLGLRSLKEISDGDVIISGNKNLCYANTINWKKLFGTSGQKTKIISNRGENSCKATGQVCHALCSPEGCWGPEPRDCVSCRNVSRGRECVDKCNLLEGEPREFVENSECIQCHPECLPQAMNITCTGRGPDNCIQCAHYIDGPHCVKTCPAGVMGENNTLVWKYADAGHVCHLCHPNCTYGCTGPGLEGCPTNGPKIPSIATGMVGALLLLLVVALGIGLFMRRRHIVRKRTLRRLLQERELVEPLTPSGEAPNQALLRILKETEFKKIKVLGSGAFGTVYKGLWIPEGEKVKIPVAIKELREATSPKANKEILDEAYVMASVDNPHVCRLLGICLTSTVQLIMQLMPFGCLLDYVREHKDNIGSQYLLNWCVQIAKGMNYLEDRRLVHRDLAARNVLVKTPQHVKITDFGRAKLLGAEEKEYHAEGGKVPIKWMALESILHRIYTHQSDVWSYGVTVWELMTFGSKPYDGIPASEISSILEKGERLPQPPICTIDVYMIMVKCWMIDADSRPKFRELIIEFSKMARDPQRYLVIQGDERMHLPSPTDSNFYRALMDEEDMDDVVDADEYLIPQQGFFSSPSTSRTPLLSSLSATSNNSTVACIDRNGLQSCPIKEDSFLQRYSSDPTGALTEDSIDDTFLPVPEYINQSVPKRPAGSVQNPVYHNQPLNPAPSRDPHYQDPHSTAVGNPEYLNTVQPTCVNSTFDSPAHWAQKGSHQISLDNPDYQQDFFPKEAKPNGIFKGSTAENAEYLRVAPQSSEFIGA
- TEST: Kinase inhibition, EGFR L858R/T790M
- Format: biochemical
- RECORDED_CONDITIONS: 10 μM ATP; 10 pt curves, 3 μM top concentration (singlicates)
OBSERVABLE: IC50

Illustrative cases are given below, each with its answer.
{"MOLECULE": "COCCOc1cc(OC)c(Nc2ncc(Cl)c(Nc3ccccc3P(C)(C)=O)n2)cc1NC(=O)/C=C/CN(C)C [Example 57]", "REPORTED_MEASUREMENT": "< 51 nM"}
{"MOLECULE": "C=CC(=O)Nc1ccc(OC)c(Nc2ncc(Cl)c(Nc3cccc(C)c3P(=O)(CC)CC)n2)c1 [Example 50]", "REPORTED_MEASUREMENT": "< 51 nM"}
{"MOLECULE": "C=CC(=O)Nc1cc(Nc2ncc(Cl)c(Nc3ccccc3P(C)(C)=O)n2)c(OC)cc1O[C@@H](COC)CN(CC)CC (stereo in doubt) [Example 29]", "REPORTED_MEASUREMENT": "< 51 nM"}

Q: Determine from records and report IC50 for COc1ccc(N2C(=O)C=CC2=O)cc1Nc1ncc(Cl)c(Nc2ccccc2P(C)(C)=O)n1 [Example 46]
A: ≥ 250 nM

###

- TARGET_SYSTEM: human EGFR (native sequence) (Homo sapiens, UniProt P00533)
- Sequence (P00533 25-1210): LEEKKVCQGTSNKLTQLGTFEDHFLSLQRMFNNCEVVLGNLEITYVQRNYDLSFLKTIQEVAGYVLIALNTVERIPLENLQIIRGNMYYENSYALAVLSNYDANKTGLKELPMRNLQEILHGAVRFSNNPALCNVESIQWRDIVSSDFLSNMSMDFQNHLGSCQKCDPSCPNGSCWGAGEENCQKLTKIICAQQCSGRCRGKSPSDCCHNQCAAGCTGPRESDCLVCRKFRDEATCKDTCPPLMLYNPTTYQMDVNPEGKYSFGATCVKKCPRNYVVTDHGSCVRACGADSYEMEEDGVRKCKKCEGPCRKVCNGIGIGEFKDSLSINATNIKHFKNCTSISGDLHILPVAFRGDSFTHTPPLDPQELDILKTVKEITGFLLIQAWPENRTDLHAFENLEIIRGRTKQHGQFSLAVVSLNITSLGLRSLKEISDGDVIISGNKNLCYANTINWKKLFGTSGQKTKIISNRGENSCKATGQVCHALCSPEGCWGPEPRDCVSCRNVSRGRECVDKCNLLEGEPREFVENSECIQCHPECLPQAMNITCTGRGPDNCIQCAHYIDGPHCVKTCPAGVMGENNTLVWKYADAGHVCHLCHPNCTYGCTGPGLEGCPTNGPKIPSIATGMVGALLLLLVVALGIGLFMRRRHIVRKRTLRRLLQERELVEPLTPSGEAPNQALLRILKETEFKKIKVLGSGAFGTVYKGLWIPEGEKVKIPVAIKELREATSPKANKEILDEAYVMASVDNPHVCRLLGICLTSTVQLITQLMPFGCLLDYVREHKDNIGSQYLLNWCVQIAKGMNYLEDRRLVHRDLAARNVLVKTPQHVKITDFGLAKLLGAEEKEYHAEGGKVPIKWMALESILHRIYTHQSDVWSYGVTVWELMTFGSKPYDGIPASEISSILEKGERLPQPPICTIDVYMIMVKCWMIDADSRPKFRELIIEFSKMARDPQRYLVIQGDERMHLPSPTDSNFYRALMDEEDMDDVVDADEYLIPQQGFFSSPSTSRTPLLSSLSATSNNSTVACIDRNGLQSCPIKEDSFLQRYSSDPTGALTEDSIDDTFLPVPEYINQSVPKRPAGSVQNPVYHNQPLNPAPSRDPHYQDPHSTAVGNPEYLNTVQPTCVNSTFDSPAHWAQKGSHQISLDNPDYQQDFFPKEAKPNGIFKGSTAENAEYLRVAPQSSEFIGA
- TEST: Kinase inhibition, human EGFR (native sequence)
- Type: biochemical
- RECORDED_CONDITIONS: 10 μM ATP; 10 pt curves, 3 μM top concentration (singlicates)
OBSERVABLE: IC50

Illustrative cases are given below, each with its answer.
{"MOLECULE": "C=CC(=O)Nc1cc(Nc2ncc(CC)c(Nc3ccccc3P(C)(C)=O)n2)c(OC)cc1N(C)CCN(CC)CC", "IC50": "51 to 100 nM"}
{"MOLECULE": "C=CC(=O)Nc1ccc(OC)c(Nc2ncc(Cl)c(Nc3ccc(F)cc3P(C)(C)=O)n2)c1", "IC50": "101 to 250 nM"}
{"MOLECULE": "C=CC(=O)Nc1cccc(Nc2ncc(Cl)c(Nc3ccccc3P(C)(C)=O)n2)c1", "IC50": "101 to 250 nM"}
{"MOLECULE": "C=CC(=O)Nc1cc(Nc2ncc(Cl)c(Nc3ccccc3P(C)(C)=O)n2)c(OC)cc1N(CC)CCN(CC)CC", "IC50": "< 51 nM"}
{"MOLECULE": "COc1cc(N2CCOCC2)c(NC(=O)C2CO2)cc1Nc1ncc(Cl)c(Nc2ccccc2P(C)(C)=O)n1 (stereo not drawn)", "IC50": "< 51 nM"}
{"MOLECULE": "C=C(CN(C)C)C(=O)Nc1ccc(OC)c(Nc2ncc(Cl)c(Nc3ccccc3P(C)(C)=O)n2)c1", "IC50": "< 51 nM"}
{"MOLECULE": "C=CC(=O)Nc1cc(Nc2ncc(Cl)c(Nc3ccccc3P(C)(C)=O)n2)c(OC)cc1N(C)CCN(CC)CC", "IC50": "< 51 nM"}
{"MOLECULE": "C=CC(=O)Nc1cc(Nc2ncc(Cl)c(Nc3ccccc3P(C)(C)=O)n2)c(OC)cc1N(C)CCCN(C)C", "IC50": "≥ 250 nM"}
{"MOLECULE": "C=CP(C)(=O)Cc1ccc(OC)c(Nc2ncc(Cl)c(Nc3ccccc3P(C)(C)=O)n2)c1 (stereo not drawn)", "IC50": "≥ 250 nM"}
{"MOLECULE": "C=C(CNc1ccc(OC)c(Nc2ncc(Cl)c(Nc3ccccc3P(C)(C)=O)n2)c1)C(=O)OC", "IC50": "≥ 250 nM"}

// switching to the query molecule
Q: Determine from records and report IC50 for C=CC(=O)Nc1cc(Nc2ncc(Cl)c(Nc3ccccc3P(C)(C)=O)n2)c(OC)cc1F
A: < 51 nM
